This collection of values is drawn from patent US6383276B1.

Assay: Measurement of solubility in ethyl acetate (Example 6, Comparison Example 1)
Format: physicochemical
Details: 25° C. for 20 hours, filtered through 0.2 μm filter, ink concentrated
PROPERTY_NAME: Solubility (wt. %)

compound="CCN(CC)c1ccc(N=C2C(C)=Nn3nc(C(C)CNC(=O)CCCOc4ccc(OC)cc4)nc32)c(C)c1 (stereo not drawn) [X-4, reference compound]" unit_label="wt. %" experimental_result=0.63

I = CCN(CCC#N)c1ccc(N=C2C(C)=Nn3nc(C(C)CNC(=O)CCCOc4ccc(OC)cc4)nc32)cc1 (stereo not drawn) [X-3, reference compound]
II = COc1ccc(OCCN(CCC#N)c2ccc(N=C3C(C)=Nn4nc(C(C)CN5C(=O)c6ccccc6C5=O)nc43)cc2)cc1 (stereo not drawn) [X-1, reference compound]
# return whichever of I and II has the smaller Solubility Mark your selection by writing its label.
II

---

Assay: Absorption maximum and molar extinction coefficient of ethyl acetate solutions
Format: physicochemical
Conditions: ethyl acetate solution, Table 1
PROPERTY_NAME: Absorption maximum (λmax) (nm)

compound="CCCCCCC(Oc1ccc(C(C)(C)CC)cc1C(C)(C)CC)C(=O)Nc1ccc(-c2nc3n(n2)N=C(C(C)(C)C)C3=Nc2ccc(N(CC)CCC#N)cc2)cc1 (stereo not drawn)" property_name="Absorption maximum (λmax)" experimental_result=517
compound=CCCCCCCCCCCCCCOC(=O)CCC(=O)Nc1ccc(-c2nc3n(n2)N=C(C(C)(C)C)C3=Nc2ccc(N(CCC#N)CCCC)cc2)cc1 property_name="Absorption maximum (λmax)" experimental_result=519
compound="CCCCCCC(Oc1ccc(C(C)(C)CC)cc1C(C)(C)CC)C(=O)Nc1ccc(-c2nc3n(n2)N=C(C(C)(C)C)C3=Nc2ccc(N(CCC#N)CCCC)cc2)cc1 (stereo not drawn)" property_name="Absorption maximum (λmax)" experimental_result=520
compound="CCCCCCC(Oc1ccc(C(C)(C)CC)cc1C(C)(C)CC)C(=O)Nc1ccc(-c2nc3n(n2)N=C(C(C)(C)C)C3=Nc2ccc(N(CCO)CCC#N)cc2C)cc1 (stereo not drawn)" property_name="Absorption maximum (λmax)" experimental_result=532
compound="CCCCCCC(Oc1ccc(C(C)(C)CC)cc1C(C)(C)CC)C(=O)NCC(C)c1nc2n(n1)N=C(C)C2=Nc1ccc(N(CC)CCC#N)cc1 (stereo not drawn)" property_name="Absorption maximum (λmax)" experimental_result=512
compound="CCCCCCC(Oc1ccc(C(C)(C)CC)cc1C(C)(C)CC)C(=O)NCC(C)c1nc2n(n1)N=C(C)C2=Nc1ccc(N(CCO)CCC#N)cc1C (stereo not drawn)" property_name="Absorption maximum (λmax)" experimental_result=522

---

Test: Absorption maximum and molar extinction coefficient of ethyl acetate solutions
Type: physicochemical
Details: ethyl acetate solution, Table 1
# key: entry, value: Molar extinction coefficient (ε)

Some compounds with recorded Molar extinction coefficient (ε):
compound="CCCCCCC(Oc1ccc(C(C)(C)CC)cc1C(C)(C)CC)C(=O)NCC(C)c1nc2n(n1)N=C(C)C2=Nc1ccc(N(CC)CCC#N)cc1 (stereo not drawn) [Ia-1]" property_name="Molar extinction coefficient (ε)" experimental_result="5.0 × 10^4"
compound="CCCCCCC(Oc1ccc(C(C)(C)CC)cc1C(C)(C)CC)C(=O)NCC(C)c1nc2n(n1)N=C(C)C2=Nc1ccc(N(CCO)CCC#N)cc1C (stereo not drawn) [Ia-6]" property_name="Molar extinction coefficient (ε)" experimental_result="5.2 × 10^4"
compound="CCCCCCC(Oc1ccc(C(C)(C)CC)cc1C(C)(C)CC)C(=O)Nc1ccc(-c2nc3n(n2)N=C(C(C)(C)C)C3=Nc2ccc(N(CCC#N)CCCC)cc2)cc1 (stereo not drawn) [Ia-14]" property_name="Molar extinction coefficient (ε)" experimental_result="4.8 × 10^4"
compound="CCCCCCC(Oc1ccc(C(C)(C)CC)cc1C(C)(C)CC)C(=O)Nc1ccc(-c2nc3n(n2)N=C(C(C)(C)C)C3=Nc2ccc(N(CCO)CCC#N)cc2C)cc1 (stereo not drawn) [Ia-15]" property_name="Molar extinction coefficient (ε)" experimental_result="4.9 × 10^4"

Which Molar extinction coefficient (ε) is reported for this compound? CCCCCCCCCCCCCCOC(=O)CCC(=O)Nc1ccc(-c2nc3n(n2)N=C(C(C)(C)C)C3=Nc2ccc(N(CCC#N)CCCC)cc2)cc1 [Ia-12]
4.8 × 10^4

Which Molar extinction coefficient (ε) is reported for this compound? CCCCCCC(Oc1ccc(C(C)(C)CC)cc1C(C)(C)CC)C(=O)Nc1ccc(-c2nc3n(n2)N=C(C(C)(C)C)C3=Nc2ccc(N(CC)CCC#N)cc2)cc1 (stereo not drawn) [Ia-13]
4.6 × 10^4

---

Experiment: Measurement of solubility in ethyl acetate (Example 6, Comparison Example 1)
Format: physicochemical
Conditions: 25° C. for 20 hours, filtered through 0.2 μm filter, ink concentrated
PROPERTY_NAME: Solubility

molecule="CCCCCCC(Oc1ccc(C(C)(C)CC)cc1C(C)(C)CC)C(=O)Nc1ccc(-c2nc3n(n2)N=C(C(C)(C)C)C3=Nc2ccc(N(CCC#N)CCCC)cc2)cc1 (stereo not drawn)" experimental_result="30.1 wt. % or more"
molecule=CCCCCCCCCCCCCCOC(=O)CCC(=O)Nc1ccc(-c2nc3n(n2)N=C(C(C)(C)C)C3=Nc2ccc(N(CCC#N)CCCC)cc2)cc1 experimental_result="30.1 wt. % or more"

Moving on to another molecule below.
Which Solubility is reported for this molecule? CCCCCCC(Oc1ccc(C(C)(C)CC)cc1C(C)(C)CC)C(=O)NCC(C)c1nc2n(n1)N=C(C)C2=Nc1ccc(N(CCO)CCC#N)cc1C (stereo not drawn)
30.2 wt. % or more
